system: NCI-H226 lung; test: NCI tumour cell line growth inhibition, 48 h
quantity.measured: GI50

Take a look at these entries with their results.
compound | result
CC(=O)[O][Hg][CH2]C1(C)COC(C)([CH2][Hg][O]C(C)=O)CO1 (stereo not given) | 6.16 µM
Cc1ccc(NC(=O)N2CCCCC2)cc1[N+](=O)[O-] | > 100 µM
O=C(Nc1cc(C(F)(F)F)cc(C(F)(F)F)c1)Nc1ccc(OCc2nnc(-c3ccc(Cl)cc3)o2)c(F)c1 | 2.93 µM
COc1cc2oc(-c3cccc(C(=O)Nc4ccc(C)cc4)c3)cc(=O)c2c(OC)c1OC | 6.65 µM

Read the next record carefully.
Prompt: Query (compound): CC(=O)N1N=C(c2ccc(Nc3nc(Nc4ccc(F)cc4)nc(Nc4ccc(Cl)cc4)n3)cc2)CC1c1ccc(N(C)C)cc1 (stereo not given) ; field requested: GI50
Response: 4.91 µM
